Assay: ATG_CMV_CIS: Attagene CIS-FACTORIAL HepG2 Assay for human CMV (Internal Marker) (AID 2282928);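 further: endpoint acts as a background internal control marker rather than a target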
Conditions: HepG2 CMV promoter reporter, transcription factor profiling; actives raise or lower the signal
Calls of active or inactive are those of the source. How the source made its calls: active means hit-call score of the fitted dose curve at least 0.9, where 1 is the maximum; inactive means score below 0.9.
The categories you may choose from are T for active, F for inactive

Here's what some known entries look like.
- O=[N+]([O-])c1ccc2nc[nH]c2c1: F
- Cc1cccnc1: F
- Oc1ccc(Oc2ccccc2)cc1: T
- C=CN1CCCCCC1=O: F
- Sc1nc2ccccc2s1: F
- CC(=O)c1nccs1: F
- O=C(Oc1ccccc1)c1ccccc1: F
- Cc1ccccc1S(N)(=O)=O: F

Query block: Recorded test call requested for `C/C=C(\C)C(=O)OCC/C=C\CC`
Result block: F

Query block: Recorded test call requested for `CCO[Si](OCC)(OCC)c1ccccc1`
Result block: F

Query block: Recorded test call requested for `CC(C)n1c(/C=C/[C@@H](O)C[C@@H](O)CC(=O)O)c(-c2ccc(F)cc2)c2ccccc21`
Result block: F

Query block: Recorded test call requested for COC(OC)C(C)c1ccccc1 (configuration not stated)
Result block: F

====

Read-out: Monocyte Chemoattractant Protein-1 (MCP1), CCL2 (gene 6347)
Test: BSK_SAg_MCP1: BioMAP Diversity Plus: SAg Assay for Monocyte Chemoattractant Protein-1 (MCP1) Biomarker Activity (AID 2283090)
Conditions: primary human HUVEC with PBMC; actives raise or lower the signal
Active and inactive are the calls of the source. How the source made its calls: active means hit-call score of the fitted dose curve at least 0.9, where 1 is the maximum; inactive means score below 0.9.
experimental_endpoint: outcome

- CCC(C)=NO: inactive
- O=C(C(=O)c1ccccc1)c1ccccc1: inactive
- Cc1cccnc1: inactive

====

Target: Cellular tumor antigen p53 (Homo sapiens)
Assay: TOX21_p53_BLA_p3_ratio: Tox21 HCT-116 p53 Agonism Beta-lactamase Assay, Ratio, Phase 3 (AID 2283596)
Records with an inconclusive call do not appear. The source made the active and inactive calls. How the source made its calls: active means hit-call score of the fitted dose curve at least 0.9, where 1 is the maximum; inconclusive means response in the unintended direction; inactive means score below 0.9.
The categories you may choose from are active, inactive

Here's what some known entries look like.
* CCCCN(CCCC)c1ccc(C(=O)c2ccccc2C(=O)O)c(O)c1 | active
* CNc1ccc(O)cc1 | inactive
* CC(C)(C)NC[C@H](O)COc1nsnc1N1CCOCC1 | inactive

Query block: Recorded test call requested for `SCCSCCS`
Result block: inactive

Query block: Recorded test call requested for `Oc1c(Cl)cc(Cl)c2cccnc12`
Result block: active

Query block: Recorded test call requested for `O=C(CCCN1CCN(c2ccccn2)CC1)c1ccc(F)cc1`
Result block: inactive

Query block: Recorded test call requested for `O=[N+]([O-])c1ccc2ncccc2c1`
Result block: inactive

====

Target: Cellular tumor antigen p53 (Homo sapiens)
Experiment: TOX21_p53_BLA_p4_ratio: Tox21 HCT-116 p53 Agonism Beta-lactamase Assay, Ratio, Phase 4 (AID 2283601)
Protocol: TOX21_p53_BLA_p4 is a cell-based, single-readout assay that uses HCT116, a human intestinal cell line, […] in a 1536-well plate.TOX21_p53_BLA_p4_ratio is an assay readout measuring reporter gene via receptor activity and designed using inducible reporter (beta lactamase induction) detected with GAL4 b-lactamase reporter gene. […] This assay endpoint, TOX21_p53_BLA_p4_ratio, was analyzed in the positive analysis fitting direction relative to DMSO as the negative control and baseline of activity. […]
Records with an inconclusive call do not appear. Activity calls are given as the source filed them. The calls were made as follows: active = hit-call score of the fitted dose curve at least 0.9, where 1 is the maximum; inconclusive = response in the unintended direction; inactive = score below 0.9.
The categories you may choose from are active, inactive

Here's what some known entries look like.
- O=C(O)/C=C/C(O)c1ccc(Cl)cc1 (stereo not given): inactive
- Cc1cc(S(=O)(=O)O)c(N)cc1Cl: inactive
- C1COC(NC(C2CC2)C2CC2)=N1: active

Query block: Recorded test call requested for COC(=O)C(CN)c1c[nH]c2ccc(OC)cc12 (stereo not given)
Result block: inactive

Query block: Recorded test call requested for `OCCN1CCN(CC/C=C2/c3ccccc3Sc3ccc(C(F)(F)F)cc32)CC1`
Result block: inactive

Query block: Recorded test call requested for `C=CC[C@@H]1/C=C(\C)C[C@H](C)C[C@H](OC)[C@H]2O[C@@](O)(C(=O)C(=O)N3CCCC[C@H]3C(=O)O[C@H](/C(C)=C/[C@@H]3CC[C@@H](O)[C@H](OC)C3)[C@H](C)[C@@H](O)CC1=O)[C@H](C)C[C@@H]2OC`
Result block: inactive

Query block: Recorded test call requested for `CCO[Si](CCCCl)(OCC)OCC`
Result block: inactive

Query block: Recorded test call requested for `CC(=C\c1ccccc1)/C=C1/SC(=S)N(CC(=O)O)C1=O`
Result block: inactive

Query block: Recorded test call requested for `CCCCCCCCCCCCCCCC(=O)NCCO`
Result block: inactive

Query block: Recorded test call requested for `C=CC[N+]1([C@H]2C[C@H]3[C@@H]4CC[C@H]5C[C@H](OC(C)=O)[C@@H](N6CCCCC6)C[C@]5(C)[C@H]4CC[C@]3(C)[C@H]2OC(=O)CC)CCCCC1`
Result block: inactive

====

Read-out: Tissue Factor, F3 (gene 2152)
Experiment: BSK_LPS_TissueFactor: BioMAP Diversity Plus: LPS Assay for Tissue Factor Biomarker Activity (AID 2283084)
Settings: primary human HUVEC with PBMC; actives raise or lower the signal
Activity calls are given as the source filed them. Rule for the calls: active = hit-call score of the fitted dose curve at least 0.9, where 1 is the maximum; inactive = score below 0.9.
The categories you may choose from are active, inactive

Here's what some known entries look like.
* CCCCCCC(O)CCCCCCCCCCC(=O)OC (stereo unspecified) | inactive
* CC(C)C1OCCN1CCOC(=O)NCCCCCCNC(=O)OCCN1CCOC1C(C)C (stereo unspecified) | inactive
* CCCCCCCCCCC1CO1 (stereo unspecified) | active
* Sc1nc2ccccc2s1 | active
* C1CN(CCOCCN2CCOCC2)CCO1 | inactive

Query block: Recorded test call requested for `COc1ccc(C(=O)c2ccccc2O)c(O)c1`
Result block: inactive

Query block: Recorded test call requested for `COC(=O)/C=C\C(=O)OC`
Result block: inactive

====

Biological target: Cellular tumor antigen p53 (Homo sapiens) (UniProt P04637)
Sequence (P04637 whole entry, looked up): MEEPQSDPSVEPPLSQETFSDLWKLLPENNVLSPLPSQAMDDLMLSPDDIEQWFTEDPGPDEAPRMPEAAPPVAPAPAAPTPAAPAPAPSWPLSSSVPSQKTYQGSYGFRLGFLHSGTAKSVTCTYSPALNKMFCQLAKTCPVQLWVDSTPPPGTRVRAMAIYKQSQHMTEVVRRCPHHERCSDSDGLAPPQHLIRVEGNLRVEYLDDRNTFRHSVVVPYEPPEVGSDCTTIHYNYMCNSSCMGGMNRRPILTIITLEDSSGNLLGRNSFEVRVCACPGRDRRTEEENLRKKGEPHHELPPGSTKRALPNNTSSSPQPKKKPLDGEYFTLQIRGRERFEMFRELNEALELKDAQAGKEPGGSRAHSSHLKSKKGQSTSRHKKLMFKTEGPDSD
Test: TOX21_p53_BLA_p5_ratio: Tox21 HCT-116 p53 Agonism Beta-lactamase Assay, Ratio, Phase 5 (AID 2283599)
Results filed as inconclusive are left out. Active and inactive are the calls of the source. How the source made its calls: active means hit-call score of the fitted dose curve at least 0.9, where 1 is the maximum; inconclusive means response in the unintended direction; inactive means score below 0.9.
The categories you may choose from are active, inactive

Here's what some known entries look like.
* C[N+](C)(C)CC(O)CC(=O)[O-] (centres undefined) | inactive
* CCCCCCC/C=C/C=O | inactive
* COc1ccc(S(=O)(=O)Nc2nnc(CC(C)C)s2)cc1 | inactive
* COCC(=O)O[C@]1(CCN(C)CCCc2nc3ccccc3[nH]2)CCc2cc(F)ccc2[C@@H]1C(C)C | active
* CCC(=O)OCc1ccc(OC)cc1 | inactive

Query block: Recorded test call requested for `CC(=O)Nc1cccc(O)c1`
Result block: inactive

Query block: Recorded test call requested for CC1(N)CCC(C(C)(C)N)CC1 (centres undefined)
Result block: inactive

Query block: Recorded test call requested for CCN1CC(CCN2CCOCC2)C(c2ccccc2)(c2ccccc2)C1=O (centres undefined)
Result block: inactive

Query block: Recorded test call requested for `CC(=C\c1ccccc1)/C=C1/SC(=S)N(CC(=O)O)C1=O`
Result block: inactive

====

Biological target: Cellular tumor antigen p53 (Homo sapiens)
Experiment: TOX21_p53_BLA_p4_ratio: Tox21 HCT-116 p53 Agonism Beta-lactamase Assay, Ratio, Phase 4 (AID 2283601)
Records with an inconclusive call do not appear. Activity calls are given as the source filed them. How the source made its calls: active means hit-call score of the fitted dose curve at least 0.9, where 1 is the maximum; inconclusive means response in the unintended direction; inactive means score below 0.9.
The categories you may choose from are active, inactive

- Cc1c(NC(C)C)c(=O)n(-c2ccccc2)n1C: inactive
- O=C(O)CONC(=O)c1ccccc1: inactive
- CCCCN(CCCC)c1ccc(C(=O)c2ccccc2C(=O)O)c(O)c1: active

Query block: Recorded test call requested for Cc1ccc(C(=O)C(C)CN2CCCCC2)cc1 (stereo unspecified)
Result block: inactive

Query block: Recorded test call requested for `C[N+](C)(CCOc1ccccc1)Cc1cccs1`
Result block: inactive

Query block: Recorded test call requested for `Cn1ccc2cc3c(cc21)CCN3C(=O)Nc1cccnc1`
Result block: inactive

Query block: Recorded test call requested for `O=S(=O)(c1ccccc1)c1ccc(Cl)cc1`
Result block: inactive

Query block: Recorded test call requested for CCC(C(=O)OCCN(CC)CC)c1ccccc1 (stereo unspecified)
Result block: inactive

Query block: Recorded test call requested for `CNCc1ccccc1`
Result block: inactive

Query block: Recorded test call requested for `O=C(c1ccc(F)cc1)C1CCN(CCn2c(=O)[nH]c3ccccc3c2=O)CC1`
Result block: inactive

Query block: Recorded test call requested for `COc1ccc(C(=O)N2CCN(CC(=O)N3CCOCC3)CC2)cc1`
Result block: inactive

Query block: Recorded test call requested for `CC(C)(c1ccccc1)c1ccccc1`
Result block: inactive

Query block: Recorded test call requested for `NNCCc1ccccc1`
Result block: inactive

Query block: Recorded test call requested for `CCc1nccnc1CC`
Result block: inactive

Query block: Recorded test call requested for `C=C1C[C@@]23CC[C@H]4[C@@](C)(CCC[C@@]4(C)C(=O)O[C@@H]4O[C@H](CO)[C@@H](O)[C@H](O)[C@H]4O)[C@@H]2CC[C@]1(O[C@@H]1O[C@H](CO)[C@@H](O)[C@H](O[C@@H]2O[C@H](CO)[C@@H](O)[C@H](O)[C@H]2O)[C@H]1O[C@@H]1O[C@H](CO)[C@@H](O)[C@H](O)[C@H]1O)C3`
Result block: inactive

Query block: Recorded test call requested for `CC12CC3CC(C)(C1)CC(N)(C3)C2`
Result block: inactive

Query block: Recorded test call requested for `Cc1cc(C)cc(N)c1`
Result block: inactive

Query block: Recorded test call requested for `CCn1cc(C(=O)O)c(=O)c2cc3c(cc21)OCO3`
Result block: inactive

Query block: Recorded test call requested for `O=C(O)c1nc(=O)[nH]c(=O)[nH]1`
Result block: inactive

The reported measurements were obtained from PubChem BioAssay (EPA / NIEHS).
